# pIC50 per entry for UniProt:P04626
# Sequence (P04626 whole entry): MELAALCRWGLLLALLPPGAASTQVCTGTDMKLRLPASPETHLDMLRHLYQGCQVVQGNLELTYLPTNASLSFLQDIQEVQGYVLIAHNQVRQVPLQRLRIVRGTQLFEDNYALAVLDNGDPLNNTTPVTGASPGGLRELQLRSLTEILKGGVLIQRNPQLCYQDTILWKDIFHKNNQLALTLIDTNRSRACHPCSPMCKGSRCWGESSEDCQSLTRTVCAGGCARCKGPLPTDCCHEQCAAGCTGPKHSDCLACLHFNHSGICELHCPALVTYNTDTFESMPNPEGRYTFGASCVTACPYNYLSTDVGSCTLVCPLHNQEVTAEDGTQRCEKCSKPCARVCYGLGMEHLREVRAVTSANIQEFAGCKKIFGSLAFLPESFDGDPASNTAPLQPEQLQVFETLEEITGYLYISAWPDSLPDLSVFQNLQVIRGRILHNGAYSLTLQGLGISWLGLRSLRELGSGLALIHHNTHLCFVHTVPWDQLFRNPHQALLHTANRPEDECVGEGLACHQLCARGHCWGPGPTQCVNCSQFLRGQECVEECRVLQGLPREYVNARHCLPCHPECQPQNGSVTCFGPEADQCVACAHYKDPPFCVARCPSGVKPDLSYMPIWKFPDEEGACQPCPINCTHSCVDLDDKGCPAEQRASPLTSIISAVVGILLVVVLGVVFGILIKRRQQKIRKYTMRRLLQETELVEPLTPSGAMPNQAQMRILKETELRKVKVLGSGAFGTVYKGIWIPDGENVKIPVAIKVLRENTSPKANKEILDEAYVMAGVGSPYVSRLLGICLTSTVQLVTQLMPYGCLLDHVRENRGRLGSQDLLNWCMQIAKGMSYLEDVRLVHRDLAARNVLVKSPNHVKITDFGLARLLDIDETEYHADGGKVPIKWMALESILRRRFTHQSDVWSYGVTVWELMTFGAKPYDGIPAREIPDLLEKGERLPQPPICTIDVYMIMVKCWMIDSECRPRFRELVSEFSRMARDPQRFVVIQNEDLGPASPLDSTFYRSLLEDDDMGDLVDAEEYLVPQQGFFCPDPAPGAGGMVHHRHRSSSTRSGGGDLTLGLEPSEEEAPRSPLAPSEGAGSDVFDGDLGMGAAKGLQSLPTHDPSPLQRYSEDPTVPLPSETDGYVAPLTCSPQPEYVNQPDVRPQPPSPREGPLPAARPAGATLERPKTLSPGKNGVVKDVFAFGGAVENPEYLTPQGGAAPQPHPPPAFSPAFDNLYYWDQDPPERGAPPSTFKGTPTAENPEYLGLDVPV
pIC50: −log10 of the molar value.
Parameter: pIC50

| Compound | Assay system | Parameter | Val |
| --- | --- | --- | --- |
| CS(=O)(=O)CC(=O)NCCn1ccc2ncnc(Nc3ccc(Oc4cccc(C(F)(F)F)c4)c(Cl)c3)c21 | UniProt:P04626 | pIC50 | 8.20 |
| CCS(=O)(=O)CC(=O)NCCn1ccc2ncnc(Nc3ccc(Oc4cccc(C(F)(F)F)c4)c(Cl)c3)c21 | UniProt:P04626 | pIC50 | 8.07 |

a: CC(C(=O)NCCn1ccc2ncnc(Nc3ccc(Oc4cccc(Cl)c4)c(Cl)c3)c21)S(C)(=O)=O (centres undefined)
b: CC(C)(C(=O)NCCn1ccc2ncnc(Nc3ccc(Oc4cccc(C(F)(F)F)c4)c(Cl)c3)c21)S(C)(=O)=O
Request: Field: lower pIC50 | Options: a / b Select an item and report its label.
Result: b
(b: 7.77, a: 8.39)
